# experimental_target: Human immunodeficiency virus type 1 protease (Human immunodeficiency virus 1)
measurement_name: pIC50
Reminder that pIC50 is minus the log10 of a molar concentration.

Before answering, review these 10 worked examples.
>>> result_number("CC(C)c1ccccc1SC1=C(O)OC(CCCCC(=O)N2CCSCC2)(c2ccccc2)CC1=O (stereo unspecified)")
6.23
>>> result_number("CC(C)c1ccccc1SC1=C(O)OC(CCCC(N)=O)(c2ccccc2)CC1=O (stereo unspecified)")
7.00
>>> result_number("CC(C)c1ccccc1SC1=C(O)OC(CCCC(=O)N(C)Cc2ccccc2)(c2ccccc2)CC1=O (stereo unspecified)")
6.17
>>> result_number("CC(C)c1ccccc1SC1=C(O)OC(CCCCC(=O)O)(c2ccccc2)CC1=O (stereo unspecified)")
8.74
>>> result_number("CC(C)c1ccccc1SC1=C(O)OC(CCC(=O)N2CCOCC2)(c2ccccc2)CC1=O (stereo unspecified)")
5.61
>>> result_number("CC(C)c1ccccc1SC1=C(O)OC(CCCCC(=O)N2CCNCC2)(c2ccccc2)CC1=O (stereo unspecified)")
6.63
>>> result_number("CC(C)c1ccccc1SC1=C(O)OC(CCC(=O)N2CCNCC2)(c2ccccc2)CC1=O (stereo unspecified)")
5.96
>>> result_number("CC(C)c1ccccc1SC1=C(O)OC(CCCC(=O)N2CCOCC2)(c2ccccc2)CC1=O (stereo unspecified)")
6.73
>>> result_number("CCCCCC1(c2ccccc2)CC(=O)C(Sc2ccccc2C(C)C)=C(O)O1 (stereo unspecified)")
7.06
>>> result_number("CC(C)c1ccccc1SC1=C(O)OC(CCCC(=O)N(C)CCc2ccccc2)(c2ccccc2)CC1=O (stereo unspecified)")
6.67

Continue with the molecule presented below.
// pIC50 lookup, molecule = CC(C)c1ccccc1SC1=C(O)OC(CCCCC(=O)N2CCN(C(=O)OC(C)(C)C)CC2)(c2ccccc2)CC1=O (stereo unspecified) , result: 6.90
